# assayTarget: integrin α4β7 (RPMI8866 human cells adhering to MAdCAM-1) (Homo sapiens, UniProt P13612+P26010)
# Construct: RMP18866 cells, which express integrin α4β7; host or cells: RPMI8866
# Sequence (P13612 34-1032): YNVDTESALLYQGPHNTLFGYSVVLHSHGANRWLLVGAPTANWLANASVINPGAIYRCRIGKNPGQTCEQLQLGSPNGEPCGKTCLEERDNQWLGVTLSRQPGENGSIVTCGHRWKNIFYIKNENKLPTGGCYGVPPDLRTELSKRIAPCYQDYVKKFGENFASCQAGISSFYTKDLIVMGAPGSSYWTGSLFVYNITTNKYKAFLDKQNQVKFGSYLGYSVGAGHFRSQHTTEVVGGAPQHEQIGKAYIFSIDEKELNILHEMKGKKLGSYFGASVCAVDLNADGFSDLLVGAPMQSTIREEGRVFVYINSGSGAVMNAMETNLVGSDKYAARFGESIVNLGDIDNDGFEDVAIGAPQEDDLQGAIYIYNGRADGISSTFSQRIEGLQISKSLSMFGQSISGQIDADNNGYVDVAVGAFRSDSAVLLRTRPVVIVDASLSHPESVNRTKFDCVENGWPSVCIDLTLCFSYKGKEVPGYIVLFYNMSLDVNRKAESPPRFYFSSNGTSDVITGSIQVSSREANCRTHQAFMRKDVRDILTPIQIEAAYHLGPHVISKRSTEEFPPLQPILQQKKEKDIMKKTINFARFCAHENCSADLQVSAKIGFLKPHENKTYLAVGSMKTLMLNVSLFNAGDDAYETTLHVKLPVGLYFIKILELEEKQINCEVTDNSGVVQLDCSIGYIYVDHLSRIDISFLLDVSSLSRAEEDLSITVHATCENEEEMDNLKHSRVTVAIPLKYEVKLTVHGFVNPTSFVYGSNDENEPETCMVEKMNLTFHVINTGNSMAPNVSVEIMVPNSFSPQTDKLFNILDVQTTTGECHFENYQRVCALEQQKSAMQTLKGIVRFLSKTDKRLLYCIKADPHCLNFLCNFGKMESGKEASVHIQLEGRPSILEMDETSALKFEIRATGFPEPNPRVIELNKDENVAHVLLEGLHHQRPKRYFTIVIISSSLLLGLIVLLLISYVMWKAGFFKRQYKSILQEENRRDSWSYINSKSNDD
# Sequence (P26010 20-798): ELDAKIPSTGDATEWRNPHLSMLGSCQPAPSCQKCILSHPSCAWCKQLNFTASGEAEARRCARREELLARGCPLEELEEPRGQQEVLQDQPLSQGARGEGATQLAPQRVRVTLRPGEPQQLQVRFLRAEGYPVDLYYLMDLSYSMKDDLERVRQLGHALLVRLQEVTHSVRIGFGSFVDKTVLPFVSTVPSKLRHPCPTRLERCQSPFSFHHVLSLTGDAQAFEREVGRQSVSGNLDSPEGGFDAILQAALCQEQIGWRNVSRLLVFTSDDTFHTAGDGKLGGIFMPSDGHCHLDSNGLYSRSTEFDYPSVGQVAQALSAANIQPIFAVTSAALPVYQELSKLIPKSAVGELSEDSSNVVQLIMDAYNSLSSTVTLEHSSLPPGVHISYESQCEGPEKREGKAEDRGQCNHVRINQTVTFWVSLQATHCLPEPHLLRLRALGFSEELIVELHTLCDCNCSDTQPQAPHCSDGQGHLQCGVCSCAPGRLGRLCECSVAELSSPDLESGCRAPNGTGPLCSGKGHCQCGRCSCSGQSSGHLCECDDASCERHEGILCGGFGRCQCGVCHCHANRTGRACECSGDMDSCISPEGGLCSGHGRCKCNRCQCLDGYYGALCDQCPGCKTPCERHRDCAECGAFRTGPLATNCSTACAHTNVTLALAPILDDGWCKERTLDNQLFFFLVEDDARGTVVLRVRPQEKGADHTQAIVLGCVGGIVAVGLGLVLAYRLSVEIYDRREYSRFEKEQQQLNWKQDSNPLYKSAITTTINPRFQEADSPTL
# protocolText: Integrin α4β7-MAdCAM cell adhesion assay (RPMI8866 cells)
# Format: cell-based
# assayContext: RPMI8866 cells adhering to MAdCAM; read-out: RPMI8866 Adhesion α4β7/MAdCAM IC50
propertyName: pIC50
// field semantics: pIC50 = negative decimal log of concentration (mol/L)

Consider the molecule CC(C)C[C@@H]1NC(=O)c2ccc(-c3ccc(N4CCN(C(=O)CCOCCOCCOCCOCCOCCOCCOCCOCCOCCOCCC(=O)N5CCN(c6ccc(-c7ccc8cc7CNC(=O)[C@@H]7CCCN7[C@H](C(=O)NC(C)(C)C)[C@H](C)NC(=O)[C@H]([C@@H](C)O)NC(=O)[C@H](CC(=O)O)NC(=O)[C@H](CC(C)C)NC8=O)cc6)CC5)CC4)cc3)c(c2)CNC(=O)[C@@H]2CCCN2[C@H](C(=O)NC(C)(C)C)[C@H](C)NC(=O)[C@H]([C@@H](C)O)NC(=O)[C@H](CC(=O)O)NC1=O [Compound 511] . State its measured pIC50. 7.52

====

# assayTarget: integrin α4β7 (RPMI8866 human cells adhering to MAdCAM-1) (Homo sapiens, UniProt P13612+P26010)
# Construct: RMP18866 cells, which express integrin α4β7; host or cells: RPMI8866
# protocolText: Integrin α4β7-MAdCAM cell adhesion assay (RPMI8866 cells)
# Assay type: cell-based
# assayContext: RPMI8866 cells adhering to MAdCAM; read-out: RPMI8866 Adhesion α4β7/MAdCAM IC50
propertyName: pIC50
Worth noting: pIC50 values are minus log10 of concentrations stated in mol/L.

Read the entry CC(C)C[C@@H]1NC(=O)c2ccc(-c3ccc(N4CCN(C(=O)C5(C(=O)N6CCN(c7ccc(-c8ccc9cc8CNC(=O)[C@@H]8CCCN8[C@H](C(=O)NC(C)(C)C)[C@H](C)NC(=O)[C@H]([C@@H](C)O)NC(=O)[C@H](CC(=O)O)NC(=O)[C@H](CC(C)C)NC9=O)cc7)CC6)CC5)CC4)cc3)c(c2)CNC(=O)[C@@H]2CCCN2[C@H](C(=O)NC(C)(C)C)[C@H](C)NC(=O)[C@H]([C@@H](C)O)NC(=O)[C@H](CC(=O)O)NC1=O [Compound 459] and write its reported pIC50. 7.48

Tell me measured pIC50 for CC(C)C[C@@H]1NC(=O)C[C@H](CCCCN)N(C)C(=O)[C@H](CCCCNC(=O)CCOCCOCCOCCOCCOCCOCCOCCC(=O)NCCCC[C@@H]2NC(=O)[C@@H]3CCCN3[C@H](C(=O)NC(C)(C)C)[C@H](C)NC(=O)[C@H]([C@@H](C)O)NC(=O)[C@H](CC(=O)O)NC(=O)[C@H](CC(C)C)NC(=O)C[C@H](CCCCN)N(C)C2=O)NC(=O)[C@@H]2CCCN2[C@H](C(=O)NC(C)(C)C)[C@H](C)NC(=O)[C@H]([C@@H](C)O)NC(=O)[C@H](CC(=O)O)NC1=O [Compound 536] please. 7.80

====

Answer each item with its documented IC50.
# assayTarget: recombinant integrin α4β1 (Homo sapiens, UniProt P05556+P13612)
# Construct: purchased R&D Systems 5397-A3-050
# Sequence (P13612 34-970 limits assumed): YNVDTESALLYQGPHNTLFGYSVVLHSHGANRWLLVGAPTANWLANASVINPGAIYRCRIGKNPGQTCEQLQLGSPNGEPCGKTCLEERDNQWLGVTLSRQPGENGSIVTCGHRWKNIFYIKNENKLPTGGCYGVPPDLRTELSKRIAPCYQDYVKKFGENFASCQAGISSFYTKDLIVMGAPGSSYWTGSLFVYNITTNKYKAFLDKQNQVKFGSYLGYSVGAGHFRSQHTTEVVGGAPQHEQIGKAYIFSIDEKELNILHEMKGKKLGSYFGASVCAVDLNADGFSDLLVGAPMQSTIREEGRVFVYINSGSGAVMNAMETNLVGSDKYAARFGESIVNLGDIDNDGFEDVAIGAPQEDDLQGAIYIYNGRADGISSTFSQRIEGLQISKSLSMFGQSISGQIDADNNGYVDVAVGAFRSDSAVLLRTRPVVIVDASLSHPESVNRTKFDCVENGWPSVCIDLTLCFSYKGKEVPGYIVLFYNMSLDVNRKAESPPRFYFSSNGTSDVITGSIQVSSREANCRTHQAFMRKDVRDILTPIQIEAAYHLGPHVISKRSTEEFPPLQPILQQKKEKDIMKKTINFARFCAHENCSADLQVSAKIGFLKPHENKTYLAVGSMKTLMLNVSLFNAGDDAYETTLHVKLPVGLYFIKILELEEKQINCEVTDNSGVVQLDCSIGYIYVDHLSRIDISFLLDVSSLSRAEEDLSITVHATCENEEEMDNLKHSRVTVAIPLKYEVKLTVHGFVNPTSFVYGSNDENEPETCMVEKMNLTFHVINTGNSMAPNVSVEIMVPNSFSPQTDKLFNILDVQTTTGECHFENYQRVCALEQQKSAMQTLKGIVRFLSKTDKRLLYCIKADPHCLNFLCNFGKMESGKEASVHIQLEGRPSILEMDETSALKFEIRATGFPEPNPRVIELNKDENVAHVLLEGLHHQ
# Sequence (P05556 21-728 limits assumed): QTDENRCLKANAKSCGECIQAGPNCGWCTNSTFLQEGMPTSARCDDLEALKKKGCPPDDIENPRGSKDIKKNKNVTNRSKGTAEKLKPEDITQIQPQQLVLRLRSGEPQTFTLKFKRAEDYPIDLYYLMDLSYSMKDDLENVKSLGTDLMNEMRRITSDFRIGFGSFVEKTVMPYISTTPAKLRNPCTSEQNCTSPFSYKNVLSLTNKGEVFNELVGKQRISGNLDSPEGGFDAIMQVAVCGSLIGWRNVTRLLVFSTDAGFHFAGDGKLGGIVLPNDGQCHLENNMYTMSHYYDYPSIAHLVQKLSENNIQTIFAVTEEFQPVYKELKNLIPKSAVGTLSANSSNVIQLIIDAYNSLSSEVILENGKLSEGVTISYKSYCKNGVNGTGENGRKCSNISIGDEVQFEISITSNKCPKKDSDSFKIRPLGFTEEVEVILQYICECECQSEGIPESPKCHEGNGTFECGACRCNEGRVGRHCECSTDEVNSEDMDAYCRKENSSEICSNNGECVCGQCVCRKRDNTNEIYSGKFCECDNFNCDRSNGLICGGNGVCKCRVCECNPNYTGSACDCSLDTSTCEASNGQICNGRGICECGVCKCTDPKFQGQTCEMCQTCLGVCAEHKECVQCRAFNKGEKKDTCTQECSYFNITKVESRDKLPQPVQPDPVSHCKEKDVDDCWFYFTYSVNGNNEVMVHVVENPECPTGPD
# protocolText: Integrin α4β1—VCAM-1 competition ELISA
# Type: binding
# assayContext: read-out: ELISA a4b1 Assay IC50
Give the quantity in nM, number only.

Name the recorded IC50 of COc1ccc(C[C@@H]2NC(=O)[C@@H]3CCCN3[C@H](C(=O)NC(C)(C)C)[C@H](C)NC(=O)[C@H]([C@@H](C)O)NC(=O)[C@H](CC(=O)O)NC(=O)[C@H](CC(C)C)NC(=O)[C@H]3CCCN3C2=O)cc1OC , assay system recombinant integrin α4β1 (Homo sapiens, UniProt P05556+P13612). 196

Give IC50; test system recombinant integrin α4β1 (Homo sapiens, UniProt P05556+P13612); compound CC(C)C[C@@H]1NC(=O)[C@H](C2CCCCC2)NC(=O)[C@@H]2CCCN2[C@H](C(=O)NC(C)(C)C)[C@H](C)NC(=O)[C@H]([C@@H](C)O)NC(=O)[C@H](CC(=O)O)NC1=O 1820

Specify the recorded IC50 for CC(C)C[C@@H]1NC(=O)C2(Cc3ccccc3C2)NC(=O)[C@@H]2CCCN2[C@H](C(=O)NC(C)(C)C)[C@H](C)NC(=O)[C@H]([C@@H](C)O)NC(=O)[C@H](CC(=O)O)NC1=O , system: recombinant integrin α4β1 (Homo sapiens, UniProt P05556+P13612). 232

Answer briefly: IC50 recorded on recombinant integrin α4β1 (Homo sapiens, UniProt P05556+P13612) for CC(C)C[C@@H]1NC(=O)[C@H](CCc2ccccc2)NC(=O)[C@@H]2CCCN2[C@H](C(=O)NC(C)(C)C)[C@H](C)NC(=O)[C@H]([C@@H](C)O)NC(=O)[C@H](CC(=O)O)NC1=O 200

Report IC50 under test system recombinant integrin α4β1 (Homo sapiens, UniProt P05556+P13612) for CC(C)C[C@@H]1NC(=O)C[C@H](CCCCN)NC(=O)[C@H](Cc2ccc(I)cc2)NC(=O)[C@@H]2CCCN2[C@H](C(=O)NC(C)(C)C)[C@H](C)NC(=O)[C@H]([C@@H](C)O)NC(=O)[C@H](CC(=O)O)NC1=O . 9560

Give IC50 only, for CC(C)C[C@@H]1NC(=O)[C@H]2CCCCN2C(=O)[C@@H]2CCCN2[C@H](C(=O)NC(C)(C)C)[C@H](C)NC(=O)[C@H]([C@@H](C)O)NC(=O)[C@H](CC(=O)O)NC1=O , using recombinant integrin α4β1 (Homo sapiens, UniProt P05556+P13612) data. 102

Look up and report measured IC50 (recombinant integrin α4β1 (Homo sapiens, UniProt P05556+P13612)) for the following compound: CC(C)C[C@@H]1NC(=O)C[C@H](CCCCN)NC[C@H](Cc2ccc(CN)cc2)NC(=O)[C@@H]2CCCN2[C@H](C(=O)NC(C)(C)C)[C@H](C)NC(=O)[C@H]([C@@H](C)O)NC(=O)[C@H](CC(=O)O)NC1=O 3130

Quote recombinant integrin α4β1 (Homo sapiens, UniProt P05556+P13612) IC50 for entry CC(C)C[C@@H]1NC(=O)[C@H](Cc2ccc(O)cc2)NC(=O)[C@@H]2CCCN2[C@H](C(=O)NC(C)(C)C)[C@H](C)NC(=O)[C@H](C(C)(C)S)NC(=O)[C@H](CC(=O)O)NC1=O . 119

Enter measured IC50, system recombinant integrin α4β1 (Homo sapiens, UniProt P05556+P13612), for the compound shown: CC[C@H](C)[C@@H]1NC(=O)[C@H](CC(=O)O)NC(=O)[C@H](CC(C)C)NC(=O)C[C@H](CCCCN)NC(=O)[C@@H](Cc2ccc(CN)cc2)NC(=O)[C@@H]2CCCN2[C@H](C(=O)NC(C)(C)C)[C@H](C)NC1=O 1090

Given CC(C)C[C@@H]1NC(=O)[C@H]2CCCCN2C(=O)[C@H](Cc2ccc(-c3ccccc3)cc2)NC(=O)[C@@H]2CCCN2[C@H](C(=O)NC(C)(C)C)[C@H](C)NC(=O)[C@H]([C@@H](C)O)NC(=O)[C@H](CC(=O)O)NC1=O , report its IC50 on recombinant integrin α4β1 (Homo sapiens, UniProt P05556+P13612). 118

Enter recorded IC50 with recombinant integrin α4β1 (Homo sapiens, UniProt P05556+P13612) for CC(C)C[C@@H]1NC(=O)[C@@H]2C[C@@H](OCc3ccccc3)CN2C(=O)[C@@H]2CCCN2[C@H](C(=O)NC(C)(C)C)[C@H](C)NC(=O)[C@H]([C@@H](C)O)NC(=O)[C@H](CC(=O)O)NC1=O here. 148

Name the value of IC50 reported for CC(C)C[C@@H]1NC(=O)[C@H]2CCCCN2C(=O)[C@H](Cc2ccc(O)cc2)N(C)C(=O)[C@@H]2CCCN2[C@H](C(=O)NC(C)(C)C)[C@H](C)NC(=O)[C@H]([C@@H](C)O)NC(=O)[C@H](CC(=O)O)NC1=O when tested on recombinant integrin α4β1 (Homo sapiens, UniProt P05556+P13612). 105

Please look at CC(C)C[C@@H]1NC(=O)C[C@H](CCCCN)NC(=O)[C@H](CC2CCCCC2)NC(=O)[C@@H]2CCCN2[C@H](C(=O)NC(C)(C)C)[C@H](C)NC(=O)[C@H]([C@@H](C)O)NC(=O)[C@H](CC(=O)O)NC1=O and tell me its recorded IC50 on recombinant integrin α4β1 (Homo sapiens, UniProt P05556+P13612). 1150

State measured IC50 of the compound COc1cccc(Cl)c1-c1ccc(C[C@@H]2NC(=O)[C@@H]3CCCN3[C@H](C(=O)NC(C)(C)C)[C@H](C)NC(=O)[C@H]([C@@H](C)O)NC(=O)[C@H](CC(=O)O)NC(=O)[C@H](CC(C)C)NC(=O)C[C@H](CCCCN)NC2=O)cc1 with recombinant integrin α4β1 (Homo sapiens, UniProt P05556+P13612). 1760

# return IC50 of CC(C)C[C@@H]1NC(=O)[C@@H]2CCN2C(=O)C[C@H](CCCCN)NC(=O)[C@@H]2CCCN2[C@H](C(=O)NC(C)(C)C)[C@H](C)NC(=O)[C@H]([C@@H](C)O)NC(=O)[C@H](CC(=O)O)NC1=O (system: recombinant integrin α4β1 (Homo sapiens, UniProt P05556+P13612)) 309

Specify IC50 for C[C@@H]1NC(=O)[C@H]([C@@H](C)O)NC(=O)[C@H](CC(=O)O)NC(=O)[C@H](CC(C)(C)C)NC(=O)[C@H]2CCCCN2C(=O)[C@H](Cc2ccc(O)cc2)NC(=O)[C@@H]2CCCN2[C@@H]1C(=O)NC(C)(C)C , system recombinant integrin α4β1 (Homo sapiens, UniProt P05556+P13612). 447

Give IC50 for this entry on recombinant integrin α4β1 (Homo sapiens, UniProt P05556+P13612): CCO[C@H](C)[C@@H]1NC(=O)[C@H](CC(=O)O)NC(=O)[C@H](CC(C)C)NC(=O)[C@H](Cc2ccccc2)NC(=O)[C@@H]2CCCN2[C@H](C(=O)NC(C)(C)C)[C@H](C)NC1=O 106
